Hi there, I'd appreciate the recorded Tmax for every entry that follows.
# System: Rattus norvegicus
# Experimental details: Tmax in Sprague-Dawley rat assessed as L-dopa level at 0.332 mmol/kg, po
# Format: ADME, organism-based
# Study conditions: in vivo
Where a SMILES comes first, the peptide text is derived from it. [ ]: non-standard residue; d: D form. Dopa = N[C@@H](Cc1ccc(O)c(O)c1)C(=O)O
Field format: number, assumed h, no unit text.

# `COC(=O)[C@H](Cc1ccc(O)c(O)c1)NC(=O)[C@H](CS)NC(=O)C(C)(C)S` with Rattus norvegicus: Tmax is 6.04

Tested system Rattus norvegicus; Tmax recorded for COC(=O)[C@H](Cc1ccc(O)c(O)c1)NC(=O)[C@H](CCSC)NC(C)=O (Ac-Met-[Dopa]-OMe) was 4.22

Field Tmax (Rattus norvegicus), entry COC(=O)[C@H](Cc1ccc(O)c(O)c1)NC(=O)[C@H](CS)NC(C)=O (Ac-Cys-[Dopa]-OMe) : 4.05

---

# System: Rattus norvegicus
# Experimental details: Cmax in Sprague-Dawley rat assessed as L-dopa level at 0.332 mmol/kg, po
# Type: ADME, organism-based
# Parameters: dose 0.332 mmol/kg, route oral
# Study conditions: in vivo
Where a SMILES comes first, the peptide text is derived from it. [ ]: non-standard residue; d: D form. Dopa = N[C@@H](Cc1ccc(O)c(O)c1)C(=O)O
Parameter measured: Cmax

For reference, reported Cmax for COC(=O)[C@H](Cc1ccc(O)c(O)c1)NC(=O)[C@H](CCSC)NC(C)=O (Ac-Met-[Dopa]-OMe) stands at 62870 ng/mL

COC(=O)[C@H](Cc1ccc(O)c(O)c1)NC(=O)[C@H](CS)NC(C)=O (Ac-Cys-[Dopa]-OMe) yielded Cmax of 6910 ng/mL

Cmax for COC(=O)[C@H](CS)NC(=O)[C@H](Cc1ccc(O)c(O)c1)NC(C)=O (Ac-[Dopa]-Cys-OMe) is 6190 ng/mL

Kindly note the recorded Cmax for `COC(=O)[C@H](Cc1ccc(O)c(O)c1)NC(=O)[C@H](CS)NC(=O)[C@@H](CS)NC(C)=O` , which is 16310 ng/mL

The recorded Cmax for entry COC(=O)[C@H](CCSC)NC(=O)[C@H](Cc1ccc(O)c(O)c1)NC(C)=O (Ac-[Dopa]-Met-OMe) equals 51070 ng/mL

molecule N[C@@H](Cc1ccc(O)c(O)c1)C(=O)O [LEVODOPA] , Cmax observed: 5630 ng/mL

Please fill in: Cmax reported for `COC(=O)[C@H](Cc1ccc(O)c(O)c1)NC(=O)[C@H](CS)NC(=O)C(C)(C)S` = 17410 ng/mL

---

Record form. Attribute: MRT. Fill in for each entry.
# Test system: Rattus norvegicus
# Experimental details: Mean residence time in Sprague-Dawley rat assessed as L-dopa level at 0.332 mmol/kg, po
# Assay type: ADME, organism-based
# Study conditions: in vivo
Where a SMILES comes first, the peptide text is derived from it. [ ]: non-standard residue; d: D form. Dopa = N[C@@H](Cc1ccc(O)c(O)c1)C(=O)O
Expressed in h, but write only the number.

# compound `COC(=O)[C@H](Cc1ccc(O)c(O)c1)NC(=O)[C@H](CS)NC(=O)[C@@H](CS)NC(C)=O` ; its MRT = 8.35

MRT measured on `COC(=O)[C@H](Cc1ccc(O)c(O)c1)NC(=O)[C@H](CS)NC(=O)C(C)(C)S` = 8.22

Sure, the documented MRT for COC(=O)[C@H](CCSC)NC(=O)[C@H](Cc1ccc(O)c(O)c1)NC(C)=O (Ac-[Dopa]-Met-OMe) is 6.96

// field: MRT; key: COC(=O)[C@H](Cc1ccc(O)c(O)c1)NC(=O)[C@H](CS)NC(C)=O (Ac-Cys-[Dopa]-OMe) ; value = 9.34

// field: MRT; key: COC(=O)[C@H](Cc1ccc(O)c(O)c1)NC(=O)[C@H](CCSC)NC(C)=O (Ac-Met-[Dopa]-OMe) ; value = 7.58

MRT in this record for `N[C@@H](Cc1ccc(O)c(O)c1)C(=O)O` : 8.95

get_value(item= COC(=O)[C@H](CS)NC(=O)[C@H](Cc1ccc(O)c(O)c1)NC(C)=O (Ac-[Dopa]-Cys-OMe) , readout=MRT) returns 9.52
